# Tested on: SNU-175 (Colorectal Carcinoma)
# ASSAY_INFO: combination Emax (second highest fraction inhibited in the dose matrix, 72 h); higher = more inhibition; extreme values may be limits of the assay
Would you mind labelling by combination Emax? At or over 0.7 is Fulfilled, under is Not fulfilled.

{"columns": ["COMPOUND", "TARGET", "ANSWER_LABEL"],
 "data": [
  ["Cc1c2c(nn1C)CSCc1cc(n(C)n1)CSc1cc(c3ccccc3c1)OCCCc1c(C(=O)O)n(C)c3c-2c(Cl)ccc13 [AZD5991] + C[C@@H]1COCCN1C2=NC(=NC(=C2)C3(CC3)[S@](=N)(=O)C)C4=C5C=CNC5=NC=C4 [AZD6738] (first compound max 1 µM, 7x7, partner max 10 µM)", "SNU-175 (Colorectal Carcinoma)", "Fulfilled"],
  ["COc1cccc(OCCCN)c1-c1cc(Nc2cnc(C#N)cn2)n[nH]1 [Prexasertib] + C[C@@H]1COCCN1C2=NC(=NC(=C2)C3(CC3)[S@](=N)(=O)C)C4=C5C=CNC5=NC=C4 [AZD6738] (first compound max 1 µM, 7x7, partner max 10 µM)", "SNU-175 (Colorectal Carcinoma)", "Not fulfilled"],
  ["CCc1c2c(nc3ccc(O)cc13)-c1cc3c(c(=O)n1C2)COC(=O)[C@]3(O)CC [SN-38] + O=C(c1cc(Cc2n[nH]c(=O)c3ccccc23)ccc1F)N1CCN(C(=O)C2CC2)CC1 [Olaparib] (first compound max 0.3 µM, 7x7, partner max 10 µM)", "SNU-175 (Colorectal Carcinoma)", "Not fulfilled"],
  ["C[C@@H](c1ccc2nccn2c1)n1nnc2ncc(-c3cnn(C)c3)nc21 [Savolitinib] + CC1(C)CCC(CN2CCN(c3ccc(C(=O)NS(=O)(=O)c4ccc(NCC5CCOCC5)c([N+](=O)[O-])c4)c(Oc4cnc5[nH]ccc5c4)c3)CC2)=C(c2ccc(Cl)cc2)C1 [Venetoclax] (first compound max 1 µM, 7x7, partner max 1 µM)", "SNU-175 (Colorectal Carcinoma)", "Not fulfilled"],
  ["COc1cc2ncnc(Nc3ccc(F)c(Cl)c3)c2cc1OCCCN1CCOCC1 [Gefitinib] + CC(C)n1c(=O)n(C)c2cnc3cc(F)c(-c4ccc(OCCCN5CCCCC5)nc4)cc3c21 [AZD1390] (first compound max 10 µM, 7x7, partner max 0.3 µM)", "SNU-175 (Colorectal Carcinoma)", "Not fulfilled"],
  ["C=CCn1c(=O)c2cnc(Nc3ccc(N4CCN(C)CC4)cc3)nc2n1-c1cccc(C(C)(C)O)n1 [AZD1775] + C1CN(CCC1(C(=O)N[C@@H](CCO)C2=CC=C(C=C2)Cl)N)C3=NC=NC4=C3C=CN4 [Capivasertib] (first compound max 3 µM, partner max 3 µM)", "SNU-175 (Colorectal Carcinoma)", "Fulfilled"]
]}

###

Consider the following compounds and their measured Bliss excess readings.
# Test system: OCI-AML5 (Acute Myeloid Leukemia);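 note: after 72 h of two-drug dosing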
# ASSAY_INFO: Bliss excess, mean over the matrix (fraction); higher = more synergy

{"columns": ["COMPOUND", "Bliss excess"],
 "data": [
  ["CN(C)CCCOc1ccc(-c2ccc3ncc4c(c3c2)n(C2CCOCC2)c(=O)n4C)cn1 [AZD0156] + O=C(c1cc(Cc2n[nH]c(=O)c3ccccc23)ccc1F)N1CCN(C(=O)C2CC2)CC1 [Olaparib] (first compound max 3 µM, partner max 3 µM)", 0.0103],
  ["CC(=O)c1c(C)c2cnc(Nc3ccc(N4CCNCC4)cn3)nc2n(C2CCCC2)c1=O [Palbociclib] + Cn1cnc2c(F)c(Nc3ccc(Br)cc3Cl)c(C(=O)NOCCO)cc21 [Selumetinib] (first compound max 10 µM, 7x7, partner max 10 µM)", 0.0868],
  ["COc1nnc2ccc(N3CCC(c4ccc(OCCN5CCN(C)C(=O)[C@H]5C)cc4)CC3)nn12 [AZD5153] + CCN(CCO)CCCOc1ccc2c(Nc3cc(CC(=O)Nc4cccc(F)c4)[nH]n3)ncnc2c1 [AZD2811] (first compound max 1 µM, 7x7, partner max 1 µM)", -0.0282],
  ["Cn1cnc2c(F)c(Nc3ccc(Br)cc3Cl)c(C(=O)NOCCO)cc21 [Selumetinib] + C[C@@H]1COCCN1C2=NC(=NC(=C2)C3(CC3)[S@](=N)(=O)C)C4=C5C=CNC5=NC=C4 [AZD6738] (first compound max 10 µM, 7x7, partner max 10 µM)", 0.0024],
  ["CC(=O)c1c(C)c2cnc(Nc3ccc(N4CCNCC4)cn3)nc2n(C2CCCC2)c1=O [Palbociclib] + CN(CC[C@H](CSC1=CC=CC=C1)NC2=C(C=C(C=C2)S(=O)(=O)NC(=O)C3=CC=C(C=C3)N4CCC(CC4)[C@H](C5=CC=CC=C5C6=CC=C(C=C6)Cl)O)S(=O)(=O)C(F)(F)F)CCO [AZD4320] (first compound max 10 µM, 7x7, partner max 1 µM)", -0.0327]
]}
